Below, each entry is listed alongside its reported MIC90.
System: Candida albicans
Assay: Antifungal activity against Candida albicans after 48 hrs by CLSI method
Assay type: functional
Field: numeric (µg/mL). Do not append units.

# annotated cases, reported MIC90 shown
{"columns": ["molecule", "MIC90 / µg/mL"],
 "data": [
  ["CC[C@@H]([C@H](C)O)n1ncn(-c2ccc(N3CCN(c4ccc(OC[C@@H]5CO[C@@](Cn6cncn6)(c6ccc(F)cc6F)C5)cc4)CC3)cc2)c1=O", 0.03],
  ["CC[C@H](C)C[C@H](C)CCCCCCCCC(=O)N[C@H]1C[C@@H](O)[C@@H](NCCN)NC(=O)[C@@H]2[C@@H](O)CCN2C(=O)[C@H]([C@H](O)CCN)NC(=O)[C@H]([C@H](O)[C@@H](O)c2ccc(O)cc2)NC(=O)[C@@H]2C[C@@H](O)CN2C(=O)[C@H]([C@@H](C)O)NC1=O", 0.25],
  ["CCC(C)n1ncn(-c2ccc(N3CCN(c4ccc(OCC5COC(Cn6cncn6)(c6ccc(Cl)cc6Cl)O5)cc4)CC3)cc2)c1=O (centres undefined)", 0.03]
]}

Now let's try a different one.
Q. // returns reported MIC90 for input C[C@@H](c1ncncc1F)[C@](O)(Cn1cncn1)c1ccc(F)cc1F
A. 0.03
